test system: 786-0 renal; experiment: NCI tumour cell line growth inhibition, 48 h; in the data active means GI50 below about 0.43 µM; inactive means the rest
Labels: active, inactive

- COMPOUND: "COC(=O)c1c2c(c(C)[n+]([O-])c1C)C(=O)C=C(NCc1ccc(F)c(Cl)c1)C2=O"
  DISCRETE LABEL: "inactive"
- COMPOUND: "CC1=C2C[C@H]3[C@@H](CC[C@@H]4CC(NS(C)(=O)=O)CC[C@@]43C)[C@@H]2CC[C@@]2(C1)O[C@@H]1C[C@H](C)CN[C@H]1[C@H]2C (some centres not stated)"
  DISCRETE LABEL: "inactive"
- COMPOUND: "Cc1cc2nc3c4cc(N)ccc4n(CCN(C)C)c3nc2cc1C"
  DISCRETE LABEL: "inactive"
- COMPOUND: "C/C(=N\\Nc1cc(C)c2cc(C)ccc2n1)c1ccccn1"
  DISCRETE LABEL: "active"
- COMPOUND: "O=C(c1ccco1)c1nc2cc(Cl)ccc2[n+]([O-])c1C(F)(F)F"
  DISCRETE LABEL: "inactive"
- COMPOUND: "N#Cc1nc2c(S(=O)(=O)c3ccccc3)c(N)n(Cc3cccnc3)c2nc1C#N"
  DISCRETE LABEL: "inactive"
- COMPOUND: "CCCc1cc2c(=O)c(C(=O)OC)c[nH]c2cc1N(CC)CC"
  DISCRETE LABEL: "inactive"
- COMPOUND: "Cc1ccc(-n2c3c(c4c(CN(C)C)c(O)ccc42)CCc2ccccc2C3=O)cc1"
  DISCRETE LABEL: "inactive"
- COMPOUND: "O=c1ccn(C2OC(CO/N=C/c3ccc(O)c(O)c3O)C(O)C2O)c(=O)[nH]1 (configuration not stated)"
  DISCRETE LABEL: "inactive"
- COMPOUND: "CC(C)(C)c1nn(-c2ccccc2)c2c1C(=O)CSC(c1ccccc1Cl)N2 (configuration not stated)"
  DISCRETE LABEL: "inactive"
- COMPOUND: "COc1ccc(-n2nnnc2-c2c[nH]c3c(F)cc(F)cc23)cc1"
  DISCRETE LABEL: "inactive"
- COMPOUND: "CC(=O)[CH-]C(=O)c1ccccc1.CC(=O)[CH-]C(=O)c1ccccc1.[Eu+3].[OH-].[OH3+]"
  DISCRETE LABEL: "inactive"

Where these numbers come from: PubChem BioAssay (NCI)
